The values you see were collected from patent US20250099448A1.

Entries and their IC50
Molecular target: MAGL protein (Homo sapiens)
Sequence (Q99685 1-303): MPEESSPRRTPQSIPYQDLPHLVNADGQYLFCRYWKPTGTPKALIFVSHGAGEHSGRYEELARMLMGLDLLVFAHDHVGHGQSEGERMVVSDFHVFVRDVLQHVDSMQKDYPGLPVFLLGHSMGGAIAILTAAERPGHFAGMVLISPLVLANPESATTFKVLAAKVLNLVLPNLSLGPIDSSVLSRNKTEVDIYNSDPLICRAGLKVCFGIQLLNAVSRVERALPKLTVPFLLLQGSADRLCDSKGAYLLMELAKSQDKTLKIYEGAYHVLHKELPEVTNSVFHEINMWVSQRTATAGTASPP
Assay: 2-AG assay: MAGL inhibitory activity by hydrolysis of 2-arachidonoylglycerol to arachidonic acid, followed by mass spectrometry
Type: biochemical
Settings: 8 μM 2-arachidonoylglycerol, 15 min preincubation, 30 min reaction at RT, RapidFire MS readout
Just the number in nM, nothing appended.

>>> reported_value("O=C(N1CC(c2ccc(N3CC4(CCCO4)C3)nc2)C1)N1CC2(CC(c3nnc(C4CC4)[nH]3)C2)C1")
11.1
>>> reported_value("O=C(N1CC2(CC(Cc3cnc(C(F)(F)F)cn3)C2)C1)N1CC2(CC(c3nc(C4(F)CC4)n[nH]3)C2)C1")
0.46
>>> reported_value("Cn1ncc(C(F)(F)F)c1CN1CC2(C1)CN(C(=O)N1CC3(CC(c4nc(C5CC5)n[nH]4)C3)C1)C2")
2.74

// next item, IC50 requested
Missing value: IC50, MAGL protein (Homo sapiens), entry O=C(N1CC2(CC(c3nnc(C4CC4)[nH]3)C2)C1)N1CC2(C1)CN(S(=O)(=O)NCc1ccc(F)cc1)C2 . Fill in? 19.9
